Every entry's value here was drawn from ChEMBL document CHEMBL1806371.

Test system: Leishmania infantum
procedure.summary: Antileishmanial activity against Leishmania infantum MCAN/ES/89/IPZ229/1/89 promastigotes assessed as growth inhibition at 12.5 uM after 24 hrs
Type: functional
Here the recorded GI is given for each entry.

compound: O=[N+]([O-])c1ccc(CC[Se][Se]CCc2ccc([N+](=O)[O-])cc2)cc1
result.units: %
GI: 3.2

compound: N#C[Se]Cc1ccc(C(F)(F)F)cc1
result.units: %
GI: 97.2

compound: c1ccc(C[Se][Se]Cc2ccccc2)cc1 [BISBENZYLDISELENIDE]
result.units: %
GI: 43.6

compound: O=[N+]([O-])c1ccc(C[Se][Se]Cc2ccc([N+](=O)[O-])cc2)cc1
result.units: %
GI: 96.3

compound: CN(C)c1ccc([Se]C#N)cc1
result.units: %
GI: 86.7

compound: N#C[Se]Cc1ccccc1C#N
result.units: %
GI: 62.4

compound: N#Cc1ccccc1C[Se][Se]Cc1ccccc1C#N
result.units: %
GI: 16.5

compound: N#C[Se]Cc1ccccc1 [BENZYLSELENOCYANATE]
result.units: %
GI: 64.1

compound: N#C[Se]c1ccc(N)cc1
result.units: %
GI: 38.2

compound: O=[N+]([O-])c1ccccc1C[Se][Se]Cc1ccccc1[N+](=O)[O-]
result.units: %
GI: 58.9

compound: FC(F)(F)c1ccc(C[Se][Se]Cc2ccc(C(F)(F)F)cc2)cc1
result.units: %
GI: 6

compound: N#C[Se]CCc1ccc([N+](=O)[O-])cc1
result.units: %
GI: 81.8

compound: N#C[Se]Cc1ccc(Br)cc1
result.units: %
GI: 80.8

compound: N#Cc1cccc(C[Se][Se]Cc2cccc(C#N)c2)c1
result.units: %
GI: 35.4

compound: N#C[Se]Cc1ccccc1[N+](=O)[O-]
result.units: %
GI: 89.8

compound: N#C[Se]Cc1cccc(C#N)c1
result.units: %
GI: 71.2

compound: O=[N+]([O-])c1cccc(C[Se][Se]Cc2cccc([N+](=O)[O-])c2)c1
result.units: %
GI: 29.4

compound: Cc1ccc(C[Se]C#N)cc1
result.units: %
GI: 82.8

compound: Nc1ccc([Se][Se]c2ccc(N)cc2)cc1
result.units: %
GI: 97.6

compound: Brc1ccc(C[Se][Se]Cc2ccc(Br)cc2)cc1
result.units: %
GI: 1.9

compound: CSc1ccc(C[Se]C#N)cc1
result.units: %
GI: 92.9

---

Here the recorded Papp is given for each entry.
procedure.summary: Permeability across human Caco2 cells
Assay type: ADME, cell-based
test.settings: Caco-2, read-out: permeability
measured.endpoint: Papp (×10⁻⁶ cm/s)

compound: c1ccc(C[Se][Se]Cc2ccccc2)cc1 [BISBENZYLDISELENIDE]
measurement: 5.83
--
compound: O=[N+]([O-])c1ccc(C[Se][Se]Cc2ccc([N+](=O)[O-])cc2)cc1
measurement: 2.01
--
compound: CN(C)c1ccc([Se][Se]c2ccc(N(C)C)cc2)cc1
measurement: 5.61
--
compound: Nc1ccc([Se][Se]c2ccc(N)cc2)cc1
measurement: 2.29
--
compound: CCCCCCCCCCCCCCCCCCOCC(COP(=O)([O-])OCC[N+](C)(C)C)OC (stereo unspecified)
measurement: 3.94
--
compound: CCCCCCCCCCCCCCCCOP(=O)([O-])OCC[N+](C)(C)C
measurement: 2.17
